# target-or-system: human Claudin-6 (CLDN6) (human) (UniProt P56747)
# procedure-text: FACS, limiting dilution, ARK2 cells
parameter-measured: FACS signal at 8 nM

See these solved cases before continuing.
AB S5 (antibody, V domains shown) VH: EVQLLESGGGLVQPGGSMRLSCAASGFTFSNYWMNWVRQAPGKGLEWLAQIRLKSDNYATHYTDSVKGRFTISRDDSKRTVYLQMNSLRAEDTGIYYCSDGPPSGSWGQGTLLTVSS VL: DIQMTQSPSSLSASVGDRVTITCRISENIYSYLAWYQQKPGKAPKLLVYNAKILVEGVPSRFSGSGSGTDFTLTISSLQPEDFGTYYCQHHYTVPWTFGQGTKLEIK; 5560
AB S6 (antibody, V domains shown) VH: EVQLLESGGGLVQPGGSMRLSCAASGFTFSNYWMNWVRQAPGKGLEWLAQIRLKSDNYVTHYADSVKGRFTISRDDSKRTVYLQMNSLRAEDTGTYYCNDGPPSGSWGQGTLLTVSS VL: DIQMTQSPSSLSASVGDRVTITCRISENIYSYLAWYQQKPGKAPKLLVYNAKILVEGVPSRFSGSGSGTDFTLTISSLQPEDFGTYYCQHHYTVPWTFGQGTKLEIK; 3800

-- ask Which value of FACS signal at 8 nM has been reported for AB S3 (antibody, V domains shown) VH: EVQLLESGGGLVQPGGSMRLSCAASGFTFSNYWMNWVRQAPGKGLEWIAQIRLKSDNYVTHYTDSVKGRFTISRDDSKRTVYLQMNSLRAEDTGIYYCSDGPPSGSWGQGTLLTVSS VL: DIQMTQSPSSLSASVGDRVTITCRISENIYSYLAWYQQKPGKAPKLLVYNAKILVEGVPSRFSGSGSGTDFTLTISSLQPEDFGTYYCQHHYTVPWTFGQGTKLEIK in the records?
-- reply 4830

The measured values listed here are drawn from patent US20230049752A1.
